These entries and their values trace back to ChEMBL document CHEMBL4152304.

Tested on: HCT-116
Assay: Cytotoxicity against human HCT116 cells assessed as decrease in cell viability after 72 hrs by SRB assay
Type: functional, cell-based
Settings: HCT-116, 72 h
READOUT_NAME: IC50 (µM)

SMILES_DATA	RELATIONAL_OPERATOR	OBS_VALUE
Nc1nc(=O)n([C@@H]2C(F)=C(CO)[C@@H](O)[C@H]2O)cc1I	=	99.8
CC(C)OC(=O)[C@H](C)N[P@](=O)(OCC1=C(F)[C@@H](n2cnc3c(N)ncnc32)[C@H](O)[C@@H]1O)Oc1ccccc1	=	4.57
CNc1ncnc2c1ncn2[C@@H]1C(F)=C(CO)[C@@H](O)[C@H]1O	=	2.14
OCC1=C(F)[C@@H](n2cnc3c(NC4CC4)ncnc32)[C@H](O)[C@@H]1O	>	100
Nc1nc(=O)n([C@@H]2C(F)=C(CO)[C@@H](O)[C@H]2O)cc1F	>	100
O=c1nc(O)c(Br)cn1[C@@H]1C(F)=C(CO)[C@@H](O)[C@H]1O	=	33.1
Nc1nc(NC2CC2)c2ncn([C@@H]3C(F)=C(CO)[C@@H](O)[C@H]3O)c2n1	>	100
